Molecular target: TRKA (Homo sapiens, UniProt P04629)
Construct: aa 441-; 4 nM; 40 uM; 35 min; (NTRK1); 796; His
Sequence (P04629 441-796): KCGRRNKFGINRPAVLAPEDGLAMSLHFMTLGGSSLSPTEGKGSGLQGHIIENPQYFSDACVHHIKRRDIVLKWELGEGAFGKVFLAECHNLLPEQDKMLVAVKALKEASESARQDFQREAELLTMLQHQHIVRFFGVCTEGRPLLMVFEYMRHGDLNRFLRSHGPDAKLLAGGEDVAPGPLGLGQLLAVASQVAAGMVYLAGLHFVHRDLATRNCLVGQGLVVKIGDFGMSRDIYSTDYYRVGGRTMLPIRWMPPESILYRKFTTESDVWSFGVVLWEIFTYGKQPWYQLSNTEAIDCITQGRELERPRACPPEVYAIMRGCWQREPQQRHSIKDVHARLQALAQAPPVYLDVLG
Assay: Isolated TRK enzyme assay (HTRF KinEASE-TK kit, PV3144 TrkA enzyme assay)
Details: recombinant His-tagged cytoplasmic domain aa 441-796, 4 nM enzyme, 40 uM ATP, 35 min, arithmetic mean where more than one reading
Procedure: Isolated TRK Enzyme assays use the HTRF KinEASE-TK kit (Cisbio Cat#62TKOPEJ) with recombinant His-tagged cytoplasmic domains of TRKA receptor sourced from Invitrogen (see table below). […] After the Detection Reagent addition, plates are covered and incubated at room temperature for 60 minutes. HTRF signal is read using an Envision reader, measured as a ratio of emissions at two different wavelengths, 620 nm and 665 nm. […] Where more than one reading was taken, the arithmetic mean is presented.
measure name: IC50 (µM)

(A) NC(=O)c1cnc(N)c(OCC2CN(C(=O)Cc3ccc(OC(F)(F)F)cc3)CC2(F)F)c1 (racemic) [Example 13]
(B) CCN(CC)C(=O)c1cnc(N)c(OC2CN(C(=O)Cc3ccc(OC(F)(F)F)cc3)CC2(C)OC)c1 (racemic)
(C) CNC(=O)c1cnc(N)c(OCC2CN(C(=O)Cc3ccc(OC(F)(F)F)cc3)CC2(F)F)c1 (single isomer, unassigned) [Example 12]
(D) NC(=O)c1cnc(N)c(OCC2CN(C(=O)Cc3ccc(OC(F)(F)F)cc3)CC2(F)F)c1 (single isomer, unassigned) [Example 15]
Query block: Hey, can you sort those compounds up there by IC50, smallest first? // ordering of labels required in reply
Result block: D, A, B, C

Data provenance: patent US20160221989A1
